Origin of values: ChEMBL document CHEMBL1938230

Target: Serine/threonine-protein kinase ULK3 (Homo sapiens) (UniProt Q6PHR2)
Sequence (Q6PHR2 whole entry): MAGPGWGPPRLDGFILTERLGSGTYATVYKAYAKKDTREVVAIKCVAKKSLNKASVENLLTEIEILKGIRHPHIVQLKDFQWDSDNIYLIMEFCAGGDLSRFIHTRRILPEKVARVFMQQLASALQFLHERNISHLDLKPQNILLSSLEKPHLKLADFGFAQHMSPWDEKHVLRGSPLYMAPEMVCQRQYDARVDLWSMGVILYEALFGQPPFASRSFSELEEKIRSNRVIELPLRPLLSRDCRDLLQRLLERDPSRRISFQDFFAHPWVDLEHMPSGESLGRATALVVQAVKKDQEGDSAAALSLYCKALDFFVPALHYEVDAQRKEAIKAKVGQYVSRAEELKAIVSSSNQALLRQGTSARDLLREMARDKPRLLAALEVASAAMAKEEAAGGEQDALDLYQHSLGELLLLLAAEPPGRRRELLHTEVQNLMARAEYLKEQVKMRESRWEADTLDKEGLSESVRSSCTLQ
Test: Inhibition of human ULK3 in HL-60 cells lysate assessed as reduction of labeling of acyl-phosphate ATP probe at 100 nM
Type: cell-free
MEASUREMENT_NAME: inhibition

{"CHEM_SMILES": "C[C@H]1COc2c(NCCCn3cccn3)c(F)c(N)c3c(=O)c(C(=O)O)cn1c23", "ASSAY_TARGET": "Serine/threonine-protein kinase ULK3 (Homo sapiens) (UniProt Q6PHR2)", "VALUE_OBSERVED": "< 35%"}
{"CHEM_SMILES": "C[C@H]1COc2c(NCCCc3ccccn3)c(F)c(N)c3c(=O)c(C#N)cn1c23", "ASSAY_TARGET": "Serine/threonine-protein kinase ULK3 (Homo sapiens) (UniProt Q6PHR2)", "VALUE_OBSERVED": "< 35%"}
{"CHEM_SMILES": "C[C@H]1COc2c(NCCCn3cccn3)c(F)c(N)c3c(=O)c(C#N)cn1c23", "ASSAY_TARGET": "Serine/threonine-protein kinase ULK3 (Homo sapiens) (UniProt Q6PHR2)", "VALUE_OBSERVED": "< 35%"}
{"CHEM_SMILES": "C[C@H]1COc2c(NCCCc3ccccn3)c(F)c(N)c3c(=O)c(C(=O)O)cn1c23", "ASSAY_TARGET": "Serine/threonine-protein kinase ULK3 (Homo sapiens) (UniProt Q6PHR2)", "VALUE_OBSERVED": "< 35%"}

---

Target: Inhibitor of nuclear factor kappa-B kinase subunit beta (Homo sapiens) (UniProt O14920)
Sequence (O14920 whole entry): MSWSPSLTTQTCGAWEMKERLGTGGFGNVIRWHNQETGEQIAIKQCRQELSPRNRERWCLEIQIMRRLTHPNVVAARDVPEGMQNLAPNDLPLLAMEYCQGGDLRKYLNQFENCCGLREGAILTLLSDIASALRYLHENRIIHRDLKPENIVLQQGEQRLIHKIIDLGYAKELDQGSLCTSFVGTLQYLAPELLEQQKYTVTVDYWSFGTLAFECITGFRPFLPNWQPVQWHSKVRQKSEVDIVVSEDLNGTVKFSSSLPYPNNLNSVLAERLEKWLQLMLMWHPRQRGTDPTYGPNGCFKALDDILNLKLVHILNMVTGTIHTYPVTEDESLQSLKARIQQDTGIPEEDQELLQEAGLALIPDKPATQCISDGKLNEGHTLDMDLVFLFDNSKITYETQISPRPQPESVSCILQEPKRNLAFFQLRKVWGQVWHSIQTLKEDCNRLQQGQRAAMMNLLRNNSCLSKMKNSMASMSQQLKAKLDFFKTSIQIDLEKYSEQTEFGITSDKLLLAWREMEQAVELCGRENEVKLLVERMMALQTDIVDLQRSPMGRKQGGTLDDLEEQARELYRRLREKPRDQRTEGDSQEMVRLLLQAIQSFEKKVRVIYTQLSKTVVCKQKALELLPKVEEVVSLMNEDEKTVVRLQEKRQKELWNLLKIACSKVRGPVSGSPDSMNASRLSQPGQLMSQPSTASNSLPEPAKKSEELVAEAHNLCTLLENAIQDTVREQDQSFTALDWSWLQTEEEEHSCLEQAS
Assay: Inhibition of human IKK-beta in HL-60 cells lysate assessed as reduction of labelling of acyl-phosphate ATP probe at 100 nM
Assay type: cell-free

{"CHEM_SMILES": "C[C@H]1COc2c(NCCCc3ccccn3)c(F)c(N)c3c(=O)c(C#N)cn1c23", "inhibition": "< 35%"}
{"CHEM_SMILES": "C[C@H]1COc2c(NCCCn3cccn3)c(F)c(N)c3c(=O)c(C(=O)O)cn1c23", "inhibition": "< 35%"}
{"CHEM_SMILES": "C[C@H]1COc2c(NCCCc3ccccn3)c(F)c(N)c3c(=O)c(C(=O)O)cn1c23", "inhibition": "< 35%"}
{"CHEM_SMILES": "C[C@H]1COc2c(NCCCn3cccn3)c(F)c(N)c3c(=O)c(C#N)cn1c23", "inhibition": "< 35%"}

---

Target: Tyrosine-protein kinase JAK1 (Homo sapiens) (UniProt P23458)
Sequence (P23458 whole entry, the tested form may be a part): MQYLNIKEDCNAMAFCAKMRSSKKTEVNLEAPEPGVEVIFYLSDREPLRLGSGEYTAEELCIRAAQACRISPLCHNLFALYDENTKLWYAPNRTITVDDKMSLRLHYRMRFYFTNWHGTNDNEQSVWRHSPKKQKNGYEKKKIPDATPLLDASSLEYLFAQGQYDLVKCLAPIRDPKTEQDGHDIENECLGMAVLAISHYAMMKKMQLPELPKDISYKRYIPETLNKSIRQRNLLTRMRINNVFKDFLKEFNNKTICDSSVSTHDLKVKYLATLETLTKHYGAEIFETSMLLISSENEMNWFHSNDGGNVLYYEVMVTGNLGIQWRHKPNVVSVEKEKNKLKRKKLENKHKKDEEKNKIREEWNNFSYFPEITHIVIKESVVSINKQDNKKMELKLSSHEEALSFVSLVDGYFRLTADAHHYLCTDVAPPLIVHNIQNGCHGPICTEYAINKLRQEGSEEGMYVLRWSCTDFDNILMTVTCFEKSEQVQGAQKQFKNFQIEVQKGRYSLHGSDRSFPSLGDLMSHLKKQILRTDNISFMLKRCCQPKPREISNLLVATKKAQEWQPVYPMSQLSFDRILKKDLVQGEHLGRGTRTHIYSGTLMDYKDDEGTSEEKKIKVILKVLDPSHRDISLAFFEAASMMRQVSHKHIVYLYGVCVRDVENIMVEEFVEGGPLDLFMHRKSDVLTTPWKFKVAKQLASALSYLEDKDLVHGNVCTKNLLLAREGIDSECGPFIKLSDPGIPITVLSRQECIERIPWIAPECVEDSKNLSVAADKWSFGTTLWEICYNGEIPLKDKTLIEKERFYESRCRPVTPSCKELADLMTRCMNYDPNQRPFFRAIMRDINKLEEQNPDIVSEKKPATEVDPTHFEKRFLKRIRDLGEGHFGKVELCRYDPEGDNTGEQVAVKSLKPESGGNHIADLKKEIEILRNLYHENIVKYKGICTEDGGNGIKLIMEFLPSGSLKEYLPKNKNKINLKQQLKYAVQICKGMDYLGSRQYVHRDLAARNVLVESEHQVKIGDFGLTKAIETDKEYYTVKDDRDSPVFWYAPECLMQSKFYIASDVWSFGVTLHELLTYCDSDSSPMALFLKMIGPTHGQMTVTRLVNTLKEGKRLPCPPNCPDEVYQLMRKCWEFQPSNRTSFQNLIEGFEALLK
Test: Inhibition of human JAK1 domain2 in HL-60 cells lysate assessed as reduction of labeling of acyl-phosphate ATP probe at 100 nM
Type: cell-free
MEASUREMENT_NAME: inhibition

{"CHEM_SMILES": "C[C@H]1COc2c(NCCCn3cccn3)c(F)c(N)c3c(=O)c(C(=O)O)cn1c23", "VALUE_OBSERVED": "< 35%"}
{"CHEM_SMILES": "C[C@H]1COc2c(NCCCc3ccccn3)c(F)c(N)c3c(=O)c(C(=O)O)cn1c23", "VALUE_OBSERVED": "< 35%"}
{"CHEM_SMILES": "C[C@H]1COc2c(NCCCn3cccn3)c(F)c(N)c3c(=O)c(C#N)cn1c23", "VALUE_OBSERVED": "< 35%"}
{"CHEM_SMILES": "C[C@H]1COc2c(NCCCc3ccccn3)c(F)c(N)c3c(=O)c(C#N)cn1c23", "VALUE_OBSERVED": "< 35%"}

---

Biological target: Interferon-induced, double-stranded RNA-activated protein kinase (Homo sapiens)
Assay: Inhibition of human PKR in HL-60 cells lysate assessed as reduction of labeling of acyl-phosphate ATP probe at 100 nM
Type: cell-free

{"CHEM_SMILES": "C[C@H]1COc2c(NCCCc3ccccn3)c(F)c(N)c3c(=O)c(C#N)cn1c23", "ASSAY_TARGET": "Interferon-induced, double-stranded RNA-activated protein kinase (Homo sapiens)", "inhibition": "< 35%"}
{"CHEM_SMILES": "C[C@H]1COc2c(NCCCn3cccn3)c(F)c(N)c3c(=O)c(C#N)cn1c23", "ASSAY_TARGET": "Interferon-induced, double-stranded RNA-activated protein kinase (Homo sapiens)", "inhibition": "< 35%"}
{"CHEM_SMILES": "C[C@H]1COc2c(NCCCn3cccn3)c(F)c(N)c3c(=O)c(C(=O)O)cn1c23", "ASSAY_TARGET": "Interferon-induced, double-stranded RNA-activated protein kinase (Homo sapiens)", "inhibition": "< 35%"}
{"CHEM_SMILES": "C[C@H]1COc2c(NCCCc3ccccn3)c(F)c(N)c3c(=O)c(C(=O)O)cn1c23", "ASSAY_TARGET": "Interferon-induced, double-stranded RNA-activated protein kinase (Homo sapiens)", "inhibition": "< 35%"}

---

Recorded inhibition, one value per entry.
Biological target: Glycogen synthase kinase-3 beta (Homo sapiens, UniProt P49841)
Sequence (P49841 whole entry, looked up): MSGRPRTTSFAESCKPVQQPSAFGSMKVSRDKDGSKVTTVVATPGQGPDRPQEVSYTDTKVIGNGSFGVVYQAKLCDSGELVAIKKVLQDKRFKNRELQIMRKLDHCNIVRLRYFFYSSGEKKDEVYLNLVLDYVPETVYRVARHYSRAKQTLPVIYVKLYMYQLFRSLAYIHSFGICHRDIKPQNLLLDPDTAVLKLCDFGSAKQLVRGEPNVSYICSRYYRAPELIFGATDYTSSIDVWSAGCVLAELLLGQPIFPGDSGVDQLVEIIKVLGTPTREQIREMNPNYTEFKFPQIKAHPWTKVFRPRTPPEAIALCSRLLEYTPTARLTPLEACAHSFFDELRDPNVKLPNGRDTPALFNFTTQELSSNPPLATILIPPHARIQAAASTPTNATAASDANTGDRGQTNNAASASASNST
Test: Inhibition of human GSK3-beta in HL-60 cells lysate assessed as reduction of labelling of acyl-phosphate ATP probe at 100 nM
Assay type: cell-free

{"CHEM_SMILES": "C[C@H]1COc2c(NCCCn3cccn3)c(F)c(N)c3c(=O)c(C#N)cn1c23", "ASSAY_TARGET": "Glycogen synthase kinase-3 beta (Homo sapiens, UniProt P49841)", "RESULT_OPERATOR": "=", "inhibition [%]": 99.2}
{"CHEM_SMILES": "C[C@H]1COc2c(NCCCc3ccccn3)c(F)c(N)c3c(=O)c(C#N)cn1c23", "ASSAY_TARGET": "Glycogen synthase kinase-3 beta (Homo sapiens, UniProt P49841)", "RESULT_OPERATOR": ">", "inhibition [%]": 99.5}
{"CHEM_SMILES": "C[C@H]1COc2c(NCCCc3ccccn3)c(F)c(N)c3c(=O)c(C(=O)O)cn1c23", "ASSAY_TARGET": "Glycogen synthase kinase-3 beta (Homo sapiens, UniProt P49841)", "RESULT_OPERATOR": "=", "inhibition [%]": 82.9}
{"CHEM_SMILES": "C[C@H]1COc2c(NCCCn3cccn3)c(F)c(N)c3c(=O)c(C(=O)O)cn1c23", "ASSAY_TARGET": "Glycogen synthase kinase-3 beta (Homo sapiens, UniProt P49841)", "RESULT_OPERATOR": "=", "inhibition [%]": 87.8}

---

Target: Mitogen-activated protein kinase kinase kinase kinase 4 (Homo sapiens)
Assay: Inhibition of human ZC1/HGK in HL-60 cells lysate assessed as reduction of labeling of acyl-phosphate ATP probe at 100 nM
Type: cell-free
MEASUREMENT_NAME: inhibition

{"CHEM_SMILES": "C[C@H]1COc2c(NCCCn3cccn3)c(F)c(N)c3c(=O)c(C(=O)O)cn1c23", "VALUE_OBSERVED": "< 35%"}
{"CHEM_SMILES": "C[C@H]1COc2c(NCCCc3ccccn3)c(F)c(N)c3c(=O)c(C(=O)O)cn1c23", "VALUE_OBSERVED": "< 35%"}
{"CHEM_SMILES": "C[C@H]1COc2c(NCCCc3ccccn3)c(F)c(N)c3c(=O)c(C#N)cn1c23", "VALUE_OBSERVED": "< 35%"}
{"CHEM_SMILES": "C[C@H]1COc2c(NCCCn3cccn3)c(F)c(N)c3c(=O)c(C#N)cn1c23", "VALUE_OBSERVED": "< 35%"}

---

Molecular target: Serine/threonine-protein kinase OSR1 (Homo sapiens)
Assay: Inhibition of human OSR1 in HL-60 cells lysate assessed as reduction of labeling of acyl-phosphate ATP probe at 100 nM
Assay type: cell-free

{"CHEM_SMILES": "C[C@H]1COc2c(NCCCc3ccccn3)c(F)c(N)c3c(=O)c(C#N)cn1c23", "inhibition": "< 35%"}
{"CHEM_SMILES": "C[C@H]1COc2c(NCCCn3cccn3)c(F)c(N)c3c(=O)c(C#N)cn1c23", "inhibition": "< 35%"}
{"CHEM_SMILES": "C[C@H]1COc2c(NCCCn3cccn3)c(F)c(N)c3c(=O)c(C(=O)O)cn1c23", "inhibition": "< 35%"}
{"CHEM_SMILES": "C[C@H]1COc2c(NCCCc3ccccn3)c(F)c(N)c3c(=O)c(C(=O)O)cn1c23", "inhibition": "< 35%"}

---

System: Escherichia coli
Test: Antibacterial activity against Escherichia coli ATCC 8739
Type: ADME, organism-based
MEASUREMENT_NAME: MIC

{"CHEM_SMILES": "C[C@H]1COc2c(NCCCn3cccn3)c(F)c(N)c3c(=O)c(C#N)cn1c23", "VALUE_OBSERVED": "> 306 µM"}
{"CHEM_SMILES": "C[C@H]1COc2c(NCCCc3ccccn3)c(F)c(N)c3c(=O)c(-c4nnn[nH]4)cn1c23", "VALUE_OBSERVED": "> 274 µM"}
{"CHEM_SMILES": "C[C@H]1COc2c(NCCCn3ccnc3)c(F)c(N)c3c(=O)c(-c4nnn[nH]4)cn1c23", "VALUE_OBSERVED": "> 257 µM"}
{"CHEM_SMILES": "C[C@H]1COc2c(NCCCc3ccccc3)c(F)c(N)c3c(=O)c(C(=O)O)cn1c23", "VALUE_OBSERVED": "> 39 µM"}
{"CHEM_SMILES": "C[C@H]1COc2c(NCCCn3cccn3)c(F)c(N)c3c(=O)c(C(=O)O)cn1c23", "VALUE_OBSERVED": "20 µM"}
{"CHEM_SMILES": "C[C@H]1COc2c(NCCCc3ccccc3)c(F)c(N)c3c(=O)c(C(N)=O)cn1c23", "VALUE_OBSERVED": "> 78 µM"}
{"CHEM_SMILES": "C[C@H]1COc2c(NCCCn3ccnc3)c(F)c(N)c3c(=O)c(C#N)cn1c23", "VALUE_OBSERVED": "> 306 µM"}
{"CHEM_SMILES": "C[C@H]1COc2c(NCCCn3ccnc3)c(F)c(N)c3c(=O)c(C(N)=O)cn1c23", "VALUE_OBSERVED": "> 249 µM"}
{"CHEM_SMILES": "C[C@H]1COc2c(NCCNc3ccccn3)c(F)c(N)c3c(=O)c(C(N)=O)cn1c23", "VALUE_OBSERVED": "> 285 µM"}
